EXPERIMENT DESCRIPTION: solvent given as SMILES
MEASUREMENT SETUP: in CC#N
Labelling: emission maximum reported below 500 nm becomes True; at or above becomes False.

# MOLECULE, GROUP
measured = [
    ("C(#Cc1nccnc1C#Cc1ccccc1)c1ccccc1", "True"),
    ("Cc1ccc(C2=C3C=c4c(oc5ccccc45)=[N+]3[B-](F)(F)n3c2cc2c4ccccc4oc23)cc1", "False"),
    ("Cc1cc(O)c(C(=O)/C=C/c2ccc(N(C)C)cc2)c(=O)o1", "False"),
    ("CCN(CC)c1ccc(/C=N/C2CCCCC2/N=C/c2ccc(N(CC)CC)cc2O)c(O)c1 (centres undefined)", "True"),
    ("Cc1cc(O)c(C(=O)/C=C/c2cccc(O)c2)c(=O)o1", "False"),
    ("CC(=O)Nc1ccc2c3cccc4cccc(c5cccc1c52)c43", "True"),
    ("Cn1ccc(-c2nc3ccccc3nc2/C=C/N2CCCC2)c1", "False"),
    ("COc1ccc2nc(/N=N/c3ccc(N(C)C)cc3)sc2c1", "False"),
    ("CN(C)c1ccc(C2=Nc3scc(-c4ccc([N+](=O)[O-])cc4)[n+]3[B-](F)(F)O2)cc1", "True"),
    ("Cc1ccc2c(nc3c(=O)n(C)c(=O)nc-3n2C)c1C", "False"),
    ("COc1ccc(-c2c(-c3ccc(OC)cc3)c3c4c(cccc4c2-c2ccccc2)C(=O)c2ccccc2-3)cc1", "False"),
    ("CCN(CC)c1ccc(/C=C/C(=O)c2c(O)cc(C)oc2=O)cc1", "False"),
    ("O=C(O)COc1ccc2[nH]c3c(c2c1)CCCC3=O", "True"),
    ("COC(=O)c1nc(-c2cccc3ccccc23)oc1C", "True"),
    ("COc1ccc2cc(/C=C/c3ccccc3)c(=O)oc2c1", "True"),
    ("CN(C)CCCN1c2ccccc2CCc2ccc(Cl)cc21", "True"),
    ("Cn1nc(-c2ccccc2)c2nc3cc(Cl)ccc3nc21", "False"),
    ("COc1c2ccccc2c(OC)c2c1c1c(F)cccc1n2C", "True"),
    ("N#Cc1nc2cnc(N)nc2n1Cc1ccccc1", "True"),
    ("O=C(O)c1c2ccccc2nc2ccccc12", "True"),
    ("CN(C)c1ccc(/C=C/c2ccc(-c3nnc(-c4ccc(-c5cc6ccccc6s5)cc4)o3)cc2)cc1", "True"),
    ("CCC1(CC)c2cc(C=C(C#N)C#N)ccc2-c2ccc(N(C)C)cc21", "False"),
    ("CC(=O)O[B-]1(OC(C)=O)OC(/C=C/C=C/c2ccccc2)=CC(/C=C/C=C/c2ccccc2)=[O+]1", "False"),
    ("CC(C)(C)c1ccc2c3c(c4ccc(C(C)(C)C)cc4c2c1)=[N+]1C(=C(c2ccccc2)c2c(Br)c4c5ccc(C(C)(C)C)cc5c5cc(C(C)(C)C)ccc5c4n2[B-]1(F)F)C=3Br", "False"),
    ("CCCCN(CCCC)c1ccc(/C=C/c2ccc3nc(/C=C/c4ccc(N(C)C)cc4)c(=O)n(CCC)c3c2)cc1", "False"),
    ("COC(=O)C[C@H](NC(=O)[C@H](Cc1c[nH]c2ccccc12)NC(=O)OC(C)(C)C)C(=O)OC", "True"),
    ("CCC1=C(C)C2=C(c3cc(C(=O)Cl)cc(C4=C5C(C)=C(CC)C(C)=[N+]5[B-](F)(F)n5c(C)c(CC)c(C)c54)c3)c3c(C)c(CC)c(C)n3[B-](F)(F)[N+]2=C1C", "False"),
    ("O=P1(c2ccccc2)C(c2cc(C(F)(F)F)cc(C(F)(F)F)c2)=Cc2c3ccc4cccc5ccc(c6cc(-c7ccccc7)n1c26)c3c45 (centres undefined)", "False"),
    ("Cc1cccc2nc3c(=O)n(C)c(=O)nc-3n(C)c12", "False"),
    ("COc1ccc(/C=C/c2cc(/C=C/c3ccc(OC)cc3)nc(/C=C/c3ccc(C(F)(F)F)cc3)n2)cc1", "True"),
    ("C[n+]1ccn(CCCCc2ccc3c(c2)c2ccccc2n3-c2cc(C#N)c(C#N)cc2-n2c3ccccc3c3cc(CCCCn4cc[n+](C)c4)ccc32)c1", "False"),
    ("CC1=CC(C)=[N+]2C1=C(c1ccc3cccnc3n1)c1c(C)cc(C)n1[B-]2(F)F", "False"),
    ("F[B-]1(F)n2c(-c3ccccc3)cc(-c3ccccn3)c2N=C2C(c3ccccn3)=CC(c3ccccc3)=[N+]21", "False"),
    ("CC(=O)c1nc(-c2ccc(N(c3ccccc3)c3ccccc3)cc2)oc1C", "True"),
    ("Cc1ccc(C#Cc2ccc3ccc(=O)oc3c2)cc1", "True"),
    ("O=c1oc2ccccc2cc1C#Cc1ccccc1", "True"),
    ("CCC1=C(C)C2=Cc3ccccc3B(O)N2C1=O", "True"),
]

Reference source: the Deep4Chem optical property database
